biological target: Prostaglandin G/H synthase 1 (Homo sapiens, UniProt P23219); assay: Inhibition of COX1 in human whole blood assessed as inhibition of LPS-stimulated PGE2 production by radioimmunoassay
Sequence (P23219 whole entry): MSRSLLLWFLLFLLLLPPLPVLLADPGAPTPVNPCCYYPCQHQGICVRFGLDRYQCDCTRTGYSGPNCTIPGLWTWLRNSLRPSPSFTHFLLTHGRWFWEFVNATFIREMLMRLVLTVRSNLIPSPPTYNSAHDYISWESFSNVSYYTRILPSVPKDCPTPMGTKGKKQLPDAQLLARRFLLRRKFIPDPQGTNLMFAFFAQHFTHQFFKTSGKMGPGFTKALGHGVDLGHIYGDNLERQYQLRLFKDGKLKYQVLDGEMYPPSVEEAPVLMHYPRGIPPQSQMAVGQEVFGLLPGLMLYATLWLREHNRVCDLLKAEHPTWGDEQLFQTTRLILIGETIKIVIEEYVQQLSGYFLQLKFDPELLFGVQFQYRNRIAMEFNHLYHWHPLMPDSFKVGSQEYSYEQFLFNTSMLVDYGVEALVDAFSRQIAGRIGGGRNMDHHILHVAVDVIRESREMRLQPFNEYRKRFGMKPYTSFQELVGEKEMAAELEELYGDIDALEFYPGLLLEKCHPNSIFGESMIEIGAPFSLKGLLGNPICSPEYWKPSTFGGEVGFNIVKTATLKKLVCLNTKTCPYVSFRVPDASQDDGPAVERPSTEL
quantity kind: IC50 (µM)
Give bare numbers, in µM.

Task: What does the record list as IC50 for CCOC(=O)C(O)c1cc(-c2ccc(S(C)(=O)=O)cc2)n(-c2cccc(F)c2)c1C (racemic) ?
Result: 21.3

----------
molecular target: Prostaglandin G/H synthase 2 (Homo sapiens); assay: Inhibition of COX2 in human whole blood assessed as inhibition of TXB2 production by radioimmunoassay
Sequence (P35354 whole entry): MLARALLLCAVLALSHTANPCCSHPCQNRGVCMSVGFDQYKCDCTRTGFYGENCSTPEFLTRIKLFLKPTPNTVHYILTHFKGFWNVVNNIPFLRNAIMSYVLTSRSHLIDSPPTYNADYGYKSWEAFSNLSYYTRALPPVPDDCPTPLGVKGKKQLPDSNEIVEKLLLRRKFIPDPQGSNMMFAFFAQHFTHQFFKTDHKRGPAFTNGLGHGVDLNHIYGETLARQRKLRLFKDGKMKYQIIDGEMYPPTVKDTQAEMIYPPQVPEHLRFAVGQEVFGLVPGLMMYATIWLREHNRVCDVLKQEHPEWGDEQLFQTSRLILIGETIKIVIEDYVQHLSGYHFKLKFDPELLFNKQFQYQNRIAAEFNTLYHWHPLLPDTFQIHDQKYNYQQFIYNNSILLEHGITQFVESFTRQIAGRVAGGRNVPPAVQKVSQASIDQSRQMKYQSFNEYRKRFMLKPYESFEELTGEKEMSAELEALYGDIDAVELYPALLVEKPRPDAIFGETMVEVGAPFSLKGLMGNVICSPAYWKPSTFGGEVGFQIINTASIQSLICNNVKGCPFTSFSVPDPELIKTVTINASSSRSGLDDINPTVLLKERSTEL
Would you kindly list IC50 for each of these molecules?
One number for each entry, in nM.

Task: What does the record list as IC50 for CCc1cccc2c3c([nH]c12)C(CC)(CC(=O)O)OCC3 (configuration not stated) [ETODOLAC] ?
Result: 2000

Now turn to the next molecule.
Task: What does the record list as IC50 for CCOC(=O)C(O)c1cc(-c2ccc(S(C)(=O)=O)cc2)n(-c2cccc(F)c2)c1C (racemic) ?
Result: 3800
